# Test system: HUVEC cells
# test-protocol: CCK-8 cell viability: alleviation of proliferative toxicity of anti-tumor agents on HUVEC cells (Tables 7-1, 7-2)
# Format: cell-based
# test-conditions: Homo sapiens, 24 h, Cabozantinib (5 μM), NO-NSAID 100 μM, percentage increase in viable cells vs anti-tumor agent alone, read-out: Response rate % (average)
Lab note: anything with activation at 100 µM below 10% is marked 1; values at 10% or higher are marked 0.

>>> label_value("COc1ccc2cc(C(C)C(=O)OCCCCO[N+](=O)[O-])ccc2c1 (centres unmarked)")
0
>>> label_value("CC(C(=O)OCC(CO[N+](=O)[O-])O[N+](=O)[O-])c1ccc(-c2ccccc2)c(F)c1 (centres unmarked)")
0
>>> label_value("COc1ccc2cc(C(C)C(=O)OCC(CO[N+](=O)O)C[N+](=O)[O-])ccc2c1 (centres unmarked)")
1
>>> label_value("CC(=O)Oc1ccccc1C(=O)OCc1no[n+]([O-])c1C(N)=O")
1
>>> label_value("CC(C(=O)OCCCO[N+](=O)[O-])c1ccc(-c2ccccc2)c(F)c1 (centres unmarked)")
1

IN: In plain terms, does CC(C)Cc1ccc(C(C)C(=O)OCO/N=[N+](\[O-])N(C)C)cc1 (centres unmarked) come in under 10% for activation at 100 µM?
OUT: 0

IN: In plain terms, does CC(=O)Oc1ccccc1C(=O)OCOC(=O)CCCCCO[N+](=O)[O-] come in under 10% for activation at 100 µM?
OUT: 0

----------
Below, each of the molecules is paired with its reported Response rate % (average) value.
# Test system: human intestinal epithelial cells (FHs 74 Int)
# test-protocol: CCK-8 cell viability: alleviation of proliferative toxicity of anti-tumor agents on FHs 74 Int (Table 8-4)
# Format: cell-based
# test-conditions: Sunitinib (5 μM), NO-NSAID 100 μM
Reply numerically in %, unit not repeated.

Look over these answered cases.
>>> observed("CC(=O)Oc1ccccc1C(=O)Oc1cccc(CO[N+](=O)[O-])c1 [Compound A2]")
36
>>> observed("CC(C)Cc1ccc(C(C)C(=O)OCO/N=[N+](\\[O-])N(C)C)cc1 (centres unmarked) [Compound A4]")
23
>>> observed("CC(C(=O)OCCCO[N+](=O)[O-])c1ccc(-c2ccccc2)c(F)c1 (centres unmarked) [Compound A1]")
21

IN: Return reported Response rate % (average); argument: CC(=O)Oc1ccccc1C(=O)OCOC(=O)CCCCCO[N+](=O)[O-] [Compound A3]
OUT: 25

IN: Return reported Response rate % (average); argument: COc1ccc2cc(C(C)C(=O)OCCCCO[N+](=O)[O-])ccc2c1 (centres unmarked) [Compound A5]
OUT: 38

----------
# Test system: HUVEC cells
# test-protocol: CCK-8 cell viability: alleviation of proliferative toxicity of anti-tumor agents on HUVEC cells (Tables 7-1, 7-2)
# Type: cell-based
# test-conditions: Cabozantinib (5 μM), NO-NSAID 500 μM
Below, each of the compounds is paired with its reported NO-NSAID response rate % (average) value.

Look over these answered cases.
>>> observed("CC(=O)Oc1ccccc1C(=O)OCOC(=O)CCCCCO[N+](=O)[O-]")
"24%"
>>> observed("COc1ccc2cc(C(C)C(=O)OCCCCO[N+](=O)[O-])ccc2c1 (centres unmarked)")
"24%"
>>> observed("CC(C)Cc1ccc(C(C)C(=O)OCO/N=[N+](\\[O-])N(C)C)cc1 (centres unmarked)")
"11%"
>>> observed("CC(=O)Oc1ccccc1C(=O)Oc1cccc(CO[N+](=O)[O-])c1")
"12%"

Please turn your attention to the following entry.
IN: Return reported NO-NSAID response rate % (average); argument: CC(C(=O)OCCCO[N+](=O)[O-])c1ccc(-c2ccccc2)c(F)c1 (centres unmarked)
OUT: 15%
